Kindly state koff for each of the entries shown.
# system: T1, human IFNAR-1 protein (form not stated) (human, UniProt P17181 28-436, limits assumed)
# T1 construct: bispecific ELISA
# T1 sequence (looked up): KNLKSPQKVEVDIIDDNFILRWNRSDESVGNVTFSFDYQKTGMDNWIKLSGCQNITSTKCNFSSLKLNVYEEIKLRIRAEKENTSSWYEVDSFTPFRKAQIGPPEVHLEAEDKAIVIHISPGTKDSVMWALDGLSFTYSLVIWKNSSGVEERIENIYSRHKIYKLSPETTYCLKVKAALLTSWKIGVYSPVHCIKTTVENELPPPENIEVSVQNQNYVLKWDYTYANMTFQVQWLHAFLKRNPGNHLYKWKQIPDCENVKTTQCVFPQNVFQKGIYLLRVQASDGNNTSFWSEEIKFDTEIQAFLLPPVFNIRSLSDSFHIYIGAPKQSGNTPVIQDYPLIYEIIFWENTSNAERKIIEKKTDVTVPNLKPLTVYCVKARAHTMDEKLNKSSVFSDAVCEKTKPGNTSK
# method.notes: affinity ranking of expressed humanized 485G10 IgGs (method not named)
Answers are plain numbers, in s⁻¹.

stdin: Specify koff for 485G10 humanized VH0 + VL2 (antibody, V domains shown, Humanized IgG expressed in HEK293; also called VH0 + VL2 (485G10)) VH: QVQLVQSGAEVKKPGASVKVSCKASGFNIKDYYIHWVRQAPGQGLEWMGRIDPEDAETKYAPKFQGRVTMTRDTSISTAYMELSRLRSDDTVVYYCARYHGYWALDYWGQGTLVTVSS VL: DIQMTQSPSSLSTSVGDRVTITCKTSQNVGTNVAWYQQKPGKAPKPLIYSTSYRYSGVPSRFSGSGSGTDFTLTISSLQPEDFATYYCHQYFSYPYTFGPGTKVDIK and stop.
stdout: 0.000439

We now examine a further binder.
stdin: Provide one value: measured koff of 485G10 humanized VH2 + VL4 (antibody, V domains shown, Humanized IgG expressed in HEK293; also called VH2 + VL4 (485G10)) VH: QVQLVQSGAEVKKPGASVKLSCKASGFNIKDYYIHWVKQAPGQGLEWIGRIDPEDAETKYAPKFQGRVTMTADTSISTAYMELSRLRSDDTVVYYCGRYHGYWALDYWGQGTLVTVSS VL: DIQMTQSPSSLSTSVGDRVTVTCKTSQNVGTNVAWYQQKPGKAPKPLIYSTSYRYSGVPSRFSGSGSGTDFTLTISSVQPEDFATYYCHQYFSYPYTFGPGTKLDIK
stdout: 0.0003

Reference source for all entries: patent US20200399381A1
